measuredOn: Serine hydrolase RBBP9 (Homo sapiens) (UniProt O75884)
Sequence (O75884 whole entry, looked up): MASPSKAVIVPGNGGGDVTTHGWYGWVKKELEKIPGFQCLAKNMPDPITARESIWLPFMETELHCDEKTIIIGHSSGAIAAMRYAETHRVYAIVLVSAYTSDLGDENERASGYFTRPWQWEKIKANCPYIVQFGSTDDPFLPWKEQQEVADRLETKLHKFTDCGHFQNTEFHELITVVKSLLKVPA
assayInfo: human RBBP9 inhibitors, primary screen, biochemical, fluorescence polarization, FP-Rh probe, HTS (AID 1515);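 also: plate controls were DMSO wells with RBBP9 for no effect and wells lacking RBBP9 protein for full effect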
testConditions: recombinant RBBP9, FP-Rh probe fluorescence polarization; at 7.94 µM; active compounds read high
Hit rate of the full screen: of about 220,000 compounds, about 440 (0.2%) were called active. The full list was thinned out, with actives kept by preference.
measuredQuantity: inhibition

[
  {
    "molecule": "CC(=O)Nc1ccc(NC(=S)NC(=O)c2ccc([N+](=O)[O-])c(C)c2)cc1",
    "result": "6.76% (inactive)"
  },
  {
    "molecule": "CN1CCNC(=O)C1CC(=O)N1CC=C(c2ccc(F)cc2)CC1 (stereo unspecified)",
    "result": "1.72% (inactive)"
  },
  {
    "molecule": "O=C(NCC1CCCO1)C1CCN(C2CCN(C(=O)C3CCCCC3)CC2)CC1 (stereo unspecified)",
    "result": "-1.77% (inactive)"
  },
  {
    "molecule": "CCN(CC)Cc1nc2sc(C)c(C)c2c(=O)[nH]1",
    "result": "0.79% (inactive)"
  },
  {
    "molecule": "COc1ccc(/C=C(\\C#N)C(=O)ONC2=NCCCCC2)cc1",
    "result": "-9.38% (inactive)"
  },
  {
    "molecule": "Cc1ccc(-c2cc(C(F)(F)F)n3nc(C(=O)N4CCCC4)cc3n2)cc1",
    "result": "-1.99% (inactive)"
  },
  {
    "molecule": "COc1cc2c(cc1OC)CC1(CCCCC1)N=C2",
    "result": "-7.64% (inactive)"
  },
  {
    "molecule": "CCN(CC)C(=O)N1CCN(C(=O)c2ccc(C)cn2)CC1",
    "result": "18.9% (active)"
  },
  {
    "molecule": "Cc1cccc(C)c1NC(=O)C1CCCN1C(=O)OC(C)(C)C (stereo unspecified)",
    "result": "-5.32% (inactive)"
  },
  {
    "molecule": "Cc1ccc(OCC(=O)N2CCN(C(=O)c3cccnc3)CC2)cc1",
    "result": "-7.21% (inactive)"
  },
  {
    "molecule": "COc1ccc(C(=O)CSc2nnc(-c3ccco3)o2)cc1",
    "result": "-6.2% (inactive)"
  }
]
